Measurement Target: FtsA (Escherichia coli, UniProt P0ABH0, K86A)
Sequence (P0ABH0 whole entry K86A): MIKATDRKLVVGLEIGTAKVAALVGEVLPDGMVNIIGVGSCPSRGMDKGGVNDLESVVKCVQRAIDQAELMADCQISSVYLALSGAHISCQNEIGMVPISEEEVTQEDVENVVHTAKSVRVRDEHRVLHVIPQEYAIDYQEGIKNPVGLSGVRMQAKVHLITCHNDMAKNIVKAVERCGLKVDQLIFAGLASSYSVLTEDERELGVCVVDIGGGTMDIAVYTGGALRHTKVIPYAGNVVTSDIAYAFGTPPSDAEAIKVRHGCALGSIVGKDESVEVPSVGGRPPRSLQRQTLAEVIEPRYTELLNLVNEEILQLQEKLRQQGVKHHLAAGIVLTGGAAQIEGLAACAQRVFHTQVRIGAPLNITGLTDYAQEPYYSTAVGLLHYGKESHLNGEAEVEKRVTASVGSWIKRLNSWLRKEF
Test Method Notes: mant fluorescence titration
pKd: −log10 of the molar value.

[
  {
    "Molecule": "CNc1ccccc1C(=O)O[C@H]1[C@@H](O)[C@H](n2cnc3c(N)ncnc32)O[C@@H]1CO[P@@](=O)(O)O[P@](=O)(O)OP(=O)(O)O [mant-ATP]",
    "pKd": 4.55
  }
]
